For each of the molecules below, state its pEC50.
systemName: Peptidyl-prolyl cis-trans isomerase FKBP1A (Homo sapiens, UniProt P62942)
Sequence (P62942 whole entry): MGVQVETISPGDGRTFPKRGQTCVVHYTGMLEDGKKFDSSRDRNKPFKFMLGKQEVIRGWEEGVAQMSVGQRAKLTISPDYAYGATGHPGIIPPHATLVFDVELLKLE
assayExplanation: FKBP12 Assay
As a rule, pEC50 stands for the negative log10 of the concentration, concentration in M.

Check the records and state pEC50 for CO[C@@H]1C[C@H](C[C@@H](C)[C@@H]2CC(=O)[C@H](C)/C=C(\C)[C@@H](O)[C@@H](OC)C(=O)[C@H](C)C[C@H](C)/C=C/C=C/C=C(\C)[C@H](OCc3ccc(N=[N+]=[N-])c(I)c3)C[C@@H]3CC[C@@H](C)[C@@](O)(O3)C(=O)C(=O)N3CCCC[C@H]3C(=O)O2)CC[C@H]1O [Rapamycin C-7, analog 17a]
7.05

Check the records and state pEC50 for `CO[C@@H]1C[C@H](C[C@@H](C)[C@@H]2CC(=O)[C@H](C)/C=C(\C)[C@@H](O)[C@@H](OC)C(=O)[C@H](C)C[C@H](C)/C=C/C=C/C=C(\C)[C@H](SC)C[C@@H]3CC[C@@H](C)[C@@](O)(O3)C(=O)C(=O)N3CCCC[C@H]3C(=O)O2)CC[C@H]1O`
8.40

###

For each of the compounds below, state its EC50.
systemName: Peptidyl-prolyl cis-trans isomerase FKBP1A (Homo sapiens, UniProt P62942)
assayExplanation: FKBP12 Assay
Excerpt: FKBP12 assay using rapamycin analogs.
Dear colleague, please return just the value in µM, with no unit written.

Check the records and state EC50 for CCO[C@H]1C[C@@H]2CC[C@@H](C)[C@@](O)(O2)C(=O)C(=O)N2CCCC[C@H]2C(=O)O[C@H]([C@H](C)C[C@@H]2CC[C@@H](O)[C@H](OC)C2)CC(=O)[C@H](C)/C=C(\C)[C@@H](O)[C@@H](OC)C(=O)[C@H](C)C[C@H](C)/C=C/C=C/C=C/1C [Rapamycin C-7, analog 5b]
0.2

Check the records and state EC50 for CO[C@@H]1C[C@H](C[C@@H](C)[C@@H]2CC(=O)[C@H](C)/C=C(\C)[C@@H](O)[C@@H](OC)C(=O)[C@H](C)C[C@H](C)/C=C/C=C/C=C(\C)[C@H](OCc3ccc(Cl)cc3)C[C@@H]3CC[C@@H](C)[C@@](O)(O3)C(=O)C(=O)N3CCCC[C@H]3C(=O)O2)CC[C@H]1O [Rapamycin C-7, analog 16a]
0.045

Check the records and state EC50 for CO[C@@H]1C[C@H](C[C@@H](C)[C@@H]2CC(=O)[C@H](C)/C=C(\C)[C@@H](O)[C@@H](OC)C(=O)[C@H](C)C[C@H](C)/C=C/C=C/C=C(\C)CC[C@@H]3CC[C@@H](C)[C@@](O)(O3)C(=O)C(=O)N3CCCC[C@H]3C(=O)O2)CC[C@H]1O [Rapamycin C-7, analog 12]
0.002

###

systemName: Peptidyl-prolyl cis-trans isomerase FKBP1A (Homo sapiens, UniProt P62942)
assayExplanation: FKBP12 Assay
For each of the compounds below, state its EC50.

Give the observed EC50 of `COc1cc(OC)c([C@H]2C[C@@H]3CC[C@@H](C)[C@@](O)(O3)C(=O)C(=O)N3CCCC[C@H]3C(=O)O[C@H]([C@H](C)C[C@@H]3CC[C@@H](O)[C@H](OC)C3)CC(=O)[C@H](C)/C=C(\C)[C@@H](O)[C@@H](OC)C(=O)[C@H](C)C[C@H](C)/C=C/C=C/C=C/2C)c(OC)c1` for Peptidyl-prolyl cis-trans isomerase FKBP1A (Homo sapiens, UniProt P62942).
> 1000 nM

Give the observed EC50 of CO[C@@H]1C[C@H](C[C@@H](C)[C@@H]2CC(=O)[C@H](C)/C=C(\C)[C@@H](O)[C@@H](OC)C(=O)[C@H](C)C[C@H](C)/C=C/C=C/C=C(\C)[C@H](OCc3cccc([N+](=O)[O-])c3)C[C@@H]3CC[C@@H](C)[C@@](O)(O3)C(=O)C(=O)N3CCCC[C@H]3C(=O)O2)CC[C@H]1O [Rapamycin C-7, analog 15a] for Peptidyl-prolyl cis-trans isomerase FKBP1A (Homo sapiens, UniProt P62942).
50 nM

Give the observed EC50 of CO[C@@H]1C[C@H](C[C@@H](C)[C@@H]2CC(=O)[C@H](C)/C=C(\C)[C@@H](O)[C@@H](OC)C(=O)[C@H](C)C[C@H](C)/C=C/C=C/C=C(\C)[C@H](c3ccco3)C[C@@H]3CC[C@@H](C)[C@@](O)(O3)C(=O)C(=O)N3CCCC[C@H]3C(=O)O2)CC[C@H]1O [Rapamycin C-7, analog 10a] for Peptidyl-prolyl cis-trans isomerase FKBP1A (Homo sapiens, UniProt P62942).
20 nM

###

systemName: Peptidyl-prolyl cis-trans isomerase FKBP1A (Homo sapiens)
assayExplanation: FKBP12 Assay
For each of the molecules below, state its pEC50.
As a rule, pEC50 stands for the negative log10 of the concentration, concentration in M.

Check the records and state pEC50 for CO[C@@H]1C[C@H](C[C@@H](C)[C@@H]2CC(=O)[C@H](C)/C=C(\C)[C@@H](O)[C@@H](OC)C(=O)[C@H](C)C[C@H](C)/C=C/C=C/C=C(\C)[C@H](OCc3ccccc3)C[C@@H]3CC[C@@H](C)[C@@](O)(O3)C(=O)C(=O)N3CCCC[C@H]3C(=O)O2)CC[C@H]1O [Rapamycin C-7, analog 14a]
8.22

Check the records and state pEC50 for `COC(=O)N[C@H]1C[C@@H]2CC[C@@H](C)[C@@](O)(O2)C(=O)C(=O)N2CCCC[C@H]2C(=O)O[C@H]([C@H](C)C[C@@H]2CC[C@@H](O)[C@H](OC)C2)CC(=O)[C@H](C)/C=C(\C)[C@@H](O)[C@@H](OC)C(=O)[C@H](C)C[C@H](C)/C=C/C=C/C=C/1C`
5.60

###

For each of the compounds below, state its pEC50.
systemName: Peptidyl-prolyl cis-trans isomerase FKBP1A (Homo sapiens, UniProt P62942)
assayExplanation: FKBP12 Assay
As a rule, pEC50 stands for the negative log10 of the concentration, concentration in M.

Check the records and state pEC50 for CO[C@@H]1C[C@H](C[C@@H](C)[C@@H]2CC(=O)[C@H](C)/C=C(\C)[C@@H](O)[C@@H](OC)C(=O)[C@H](C)C[C@H](C)/C=C/C=C/C=C(\C)[C@@H](c3ccc[nH]3)C[C@@H]3CC[C@@H](C)[C@@](O)(O3)C(=O)C(=O)N3CCCC[C@H]3C(=O)O2)CC[C@H]1O [Rapamycin C-7, analog 11b]
7.15

Check the records and state pEC50 for `COc1ccc([C@@H]2C[C@@H]3CC[C@@H](C)[C@@](O)(O3)C(=O)C(=O)N3CCCC[C@H]3C(=O)O[C@H]([C@H](C)C[C@@H]3CC[C@@H](O)[C@H](OC)C3)CC(=O)[C@H](C)/C=C(\C)[C@@H](O)[C@@H](OC)C(=O)[C@H](C)C[C@H](C)/C=C/C=C/C=C/2C)c(OC)c1`
6.00

###

systemName: Peptidyl-prolyl cis-trans isomerase FKBP1A (Homo sapiens)
metric: pKi
As a rule, pKi stands for the negative log10 of the concentration, concentration in M.

Check the records and state pKi for CO[C@@H]1C[C@H](C[C@@H](C)[C@@H]2CC(=O)[C@H](C)/C=C(\C)[C@@H](O)[C@@H](OC)C(=O)[C@H](C)C[C@H](C)/C=C/C=C/C=C(\C)[C@@H](c3ccc[nH]3)C[C@@H]3CC[C@@H](C)[C@@](O)(O3)C(=O)C(=O)N3CCCC[C@H]3C(=O)O2)CC[C@H]1O [Rapamycin C-7, analog 11b]
8.82

Check the records and state pKi for CO[C@@H]1C[C@H](C[C@@H](C)[C@@H]2CC(=O)[C@H](C)/C=C(\C)[C@@H](O)[C@@H](OC)C(=O)[C@H](C)C[C@H](C)/C=C/C=C/C=C(\C)[C@H](c3ccco3)C[C@@H]3CC[C@@H](C)[C@@](O)(O3)C(=O)C(=O)N3CCCC[C@H]3C(=O)O2)CC[C@H]1O [Rapamycin C-7, analog 10a]
8.52

Check the records and state pKi for CO[C@@H]1C[C@H](C[C@@H](C)[C@@H]2CC(=O)[C@H](C)/C=C(\C)[C@@H](O)[C@@H](OC)C(=O)[C@H](C)C[C@H](C)/C=C/C=C/C=C(\C)[C@@H](SC)C[C@@H]3CC[C@@H](C)[C@@](O)(O3)C(=O)C(=O)N3CCCC[C@H]3C(=O)O2)CC[C@H]1O [Rapamycin C-7, analog 6b]
9.00

Check the records and state pKi for CCO[C@H]1C[C@@H]2CC[C@@H](C)[C@@](O)(O2)C(=O)C(=O)N2CCCC[C@H]2C(=O)O[C@H]([C@H](C)C[C@@H]2CC[C@@H](O)[C@H](OC)C2)CC(=O)[C@H](C)/C=C(\C)[C@@H](O)[C@@H](OC)C(=O)[C@H](C)C[C@H](C)/C=C/C=C/C=C/1C [Rapamycin C-7, analog 5b]
8.40

Check the records and state pKi for CO[C@@H]1C[C@H](C[C@@H](C)[C@@H]2CC(=O)[C@H](C)/C=C(\C)[C@@H](O)[C@@H](OC)C(=O)[C@H](C)C[C@H](C)/C=C/C=C/C=C(\C)[C@@H](c3ccco3)C[C@@H]3CC[C@@H](C)[C@@](O)(O3)C(=O)C(=O)N3CCCC[C@H]3C(=O)O2)CC[C@H]1O [Rapamycin C-7, analog 10b]
8.22

Check the records and state pKi for CO[C@@H]1C[C@H](C[C@@H](C)[C@@H]2CC(=O)[C@H](C)/C=C(\C)[C@@H](O)[C@@H](OC)C(=O)[C@H](C)C[C@H](C)/C=C/C=C/C=C(\C)[C@H](OCc3cccc([N+](=O)[O-])c3)C[C@@H]3CC[C@@H](C)[C@@](O)(O3)C(=O)C(=O)N3CCCC[C@H]3C(=O)O2)CC[C@H]1O [Rapamycin C-7, analog 15a]
8.15

Check the records and state pKi for COC(=O)N[C@H]1C[C@@H]2CC[C@@H](C)[C@@](O)(O2)C(=O)C(=O)N2CCCC[C@H]2C(=O)O[C@H]([C@H](C)C[C@@H]2CC[C@@H](O)[C@H](OC)C2)CC(=O)[C@H](C)/C=C(\C)[C@@H](O)[C@@H](OC)C(=O)[C@H](C)C[C@H](C)/C=C/C=C/C=C/1C [Rapamycin C-7, analog 7b]
8.43
